The following compounds are shown together with reported IC50 values.
Target: Axl (Homo sapiens)
Sequence (P30530 26-894): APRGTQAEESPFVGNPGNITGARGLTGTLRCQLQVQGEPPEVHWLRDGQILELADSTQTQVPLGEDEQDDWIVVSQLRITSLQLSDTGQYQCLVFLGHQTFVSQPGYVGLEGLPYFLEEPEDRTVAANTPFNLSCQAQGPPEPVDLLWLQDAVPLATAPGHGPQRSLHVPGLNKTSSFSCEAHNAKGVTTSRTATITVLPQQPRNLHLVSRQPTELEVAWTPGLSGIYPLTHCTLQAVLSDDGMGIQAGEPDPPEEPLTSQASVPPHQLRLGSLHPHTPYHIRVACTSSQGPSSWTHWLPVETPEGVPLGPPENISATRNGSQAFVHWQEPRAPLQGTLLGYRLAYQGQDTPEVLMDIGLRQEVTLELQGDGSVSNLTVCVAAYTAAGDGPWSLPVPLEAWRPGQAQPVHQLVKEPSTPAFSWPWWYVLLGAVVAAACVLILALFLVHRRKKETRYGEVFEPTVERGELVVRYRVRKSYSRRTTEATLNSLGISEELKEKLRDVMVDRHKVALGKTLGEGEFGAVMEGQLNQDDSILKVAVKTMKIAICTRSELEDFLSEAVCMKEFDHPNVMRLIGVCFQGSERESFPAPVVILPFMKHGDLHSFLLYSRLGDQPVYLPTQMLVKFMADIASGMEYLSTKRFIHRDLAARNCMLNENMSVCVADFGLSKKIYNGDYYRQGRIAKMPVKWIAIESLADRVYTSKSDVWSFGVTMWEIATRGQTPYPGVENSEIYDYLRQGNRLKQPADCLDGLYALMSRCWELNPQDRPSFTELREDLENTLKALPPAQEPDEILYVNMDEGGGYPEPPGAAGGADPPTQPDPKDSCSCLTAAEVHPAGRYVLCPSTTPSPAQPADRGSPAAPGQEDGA
Assay: Axl NanoBRET intracellular kinase assay (Cell Binding)
Design: host or cells: HEK-293
Conditions: HEK-293 cells transfected with Axl-NanoLuc fusion vector; displacement of K-5 NanoBRET tracer

Solved cases below.
[
  {
    "COMPOUND": "CC1(O)CCOc2cc(-c3n[nH]c4ncc(-c5ccc6c(c5)CCN(C5CCCC5)CC6)cc34)ccc21 (centres unmarked) [Example 26]",
    "IC50": "100 to 1000 nM"
  },
  {
    "COMPOUND": "CC1(C)COc2cc(-c3n[nH]c4ncc(-c5ccc6c(c5)CCC(N5CCCC5)CC6)cc34)ccc2C(=O)N1 (centres unmarked) [Example 35]",
    "IC50": "< 100 nM"
  },
  {
    "COMPOUND": "CC(C)C(=O)N1CCc2ccc(-c3cnc4[nH]nc(-c5ccc6c(c5)OCCNC6=O)c4c3)cc2CC1 [Example 16]",
    "IC50": "100 to 1000 nM"
  },
  {
    "COMPOUND": "CC1(N2CCCC2)CCc2ccc(-c3cnc4[nH]nc(-c5ccc6c(c5)OCCNC6=O)c4c3)cc2CC1 (centres unmarked) [Example 22]",
    "IC50": "< 100 nM"
  },
  {
    "COMPOUND": "O=C1NCCOc2cc(-c3n[nH]c4ncc(-c5ccc6c(c5)CCC(NC5CCCC5)CC6)cc34)ccc21 (centres unmarked) [Example 42]",
    "IC50": "< 100 nM"
  }
]

(Q) Return value of IC50 for input C[C@@H]1CCCN1C1CCc2ccc(-c3cnc4[nH]nc(-c5ccc6c(c5)OCC5(CCC5)NC6=O)c4c3)cc2CC1 (some centres unmarked) [Example 37] , no commentary.
(A) < 100 nM
